- TESTED ON: 80S Ribosome (Homo sapiens) (UniProt P08865+P42677+P62753+P15880+P23396+P61247+P62701+P22090+P46782+P62081+P62241+P46781+P46783+P62280+P25398+P62277+P62263+P62841+P62244+P62249+P08708+P62269+P39019+P60866+P63220+P62266+P62847+P62851+P62854+P62979+P62857+P62273+P62861+P39023+P36578+P46777+Q02878+P18124+P62424+P62917+P32969+P27635+P62906+P62913+P30050+P26373+P40429+P50914+P61313+P18621+Q07020+Q02543+P84098+P46778+P35268+P62829+P62750+P83731+P61254+P61353+P46776+P46779+P47914+P62888+P62899+P62910+P49207+P42766+P18077+Q9Y3U8+P83881+P61927+P61513+P63173+P62891+P62945+P05388+P05386)
- ASSAY TEXT: Induction of ribosome to readthrough in human A-T lymphoblastoid cells assessed as ATM ser1981 autophosphorylation at 30 uM after 4 days by PTT-ELISA assay
- Assay type: subcellular
Activity calls are given as the source filed them. No cut-off for these calls is given here.
READOUT TYPE: Flu intensity

See these solved cases before continuing.
| SMILES DATA | OBSERVED VALUE |
| --- | --- |
| O=Cc1cn(Cc2ccc(-c3ccccc3[N+](=O)[O-])o2)c(=O)[nH]c1=O | 2.24 |
| N=C1NC(=O)/C(=C/c2ccc(-c3ccccc3C(F)(F)F)o2)S1 | inactive |
| COc1ccccc1-c1ccc(/C=C2\SC(=N)NC2=O)o1 | inactive |
| O=C1NC(=S)S/C1=C\c1cc2ccccc2o1 | 3.5 |
| N=C1NC(=O)/C(=C/c2ccc(-c3ccccn3)o2)S1 | inactive |
| CN1C(=N)S/C(=C\c2ccc(-c3ccccc3[N+](=O)[O-])o2)C1=O | inactive |
| N=C1NC(=O)/C(=C/c2ccc(-c3ccccc3F)o2)S1 | inactive |
| N=C1NC(=O)/C(=C/c2c[nH]c3ccccc23)S1 | inactive |

Batch of 3 molecules: report Flu intensity for each.
1. N=C1NC(=O)/C(=C/c2cn(Cc3ccc(-c4ccccc4[N+](=O)[O-])o3)c(=O)[nH]c2=O)S1
2. N=C1NC(=O)/C(=C/c2ccc(-c3cccc(Cl)c3)o2)S1
3. O=C1NC(=S)S/C1=C\c1ccc(-c2ccccc2F)o1

1. 2.42
2. 2.27
3. 2.86

Taken from ChEMBL document CHEMBL1914333.
